Test system: rodent lifetime carcinogenesis bioassay, tumor incidence TD50
PROTOCOL NOTES: carcinogenic potency in animals, long-term in vivo studies, CPDB compilation (AID 1745844)
COND: rat; strain F344/DuCrj; females; in drinking water; site: liver; lesion: neoplastic nodule; dosed 108 weeks; study length 108 weeks
QUANTITY: TD50 (mg/kg/day)
The reply should be a number in mg/kg/day, with the unit left off.

Look up TD50 of NCC(=O)O and report it. 157000

* * *

Tested on: rodent lifetime carcinogenesis bioassay, tumor incidence TD50
PROTOCOL NOTES: carcinogenic potency in animals, long-term in vivo studies, CPDB compilation (AID 1745844)
COND: rat; strain Fischer 344; females; by gavage; site: uterus; lesion: several types; types named in the paper; dosed 40 weeks; study length 104 weeks
QUANTITY: TD50

Please report TD50 with rodent lifetime carcinogenesis bioassay, tumor incidence TD50 for item CCCCN(N=O)C(N)=O . 0.551 mg/kg/day
